- Tested on: HEK-293T
- MEASUREMENT NOTES: Multiplex assay against HEK293T
- Assay type: toxicity, cell-based
- EXPERIMENTAL CONTEXT: human, 12 h, 1 µM, compound concentration 1 uM, replicate 1
I'd be grateful if you could share measured Population Mitochondria Different-Phenotype (%) for these entries.
Numbers only, in %.

| COMPOUND | TARGET SYSTEM | REPORTED |
| --- | --- | --- |
| Cc1ccc(S(=O)(=O)NC2c3ccccc3Oc3ccccc32)cc1 | HEK-293T | 64 |
| CCCCCNC(=N)N/N=C/c1c[nH]c2ccc(OC)cc12.O=C(O)/C=C\C(=O)O [TEGASEROD MALEATE] | HEK-293T | 88 |
| NC(=O)c1ccc2nc(-c3ccc(C4(N)CCC4)cc3)c(-c3ccccc3)n2n1 | HEK-293T | 12 |
| CN1C(=O)[C@@H](NC(=O)c2cc3ccccc3[nH]2)N=C(c2ccccc2)c2ccccc21 [DEVAZEPIDE] | HEK-293T | 73 |
| CCCc1cc(C)[nH]c(=O)c1CNC(=O)c1cc(-c2ccc(N3CCN(C(C)C)CC3)nc2)cc2c1cnn2C(C)C | HEK-293T | 97 |
| CC(C)c1cc(Nc2nc(N3CCC[C@H](N)C3)ncc2C(N)=O)cc(C(C)C)n1 | HEK-293T | 95 |

For each of the compounds below, state Population Mitochondria Different-Phenotype (%).
1. Oc1cccc(-c2nc(N3CCOCC3)c3oc4ncccc4c3n2)c1
2. CC[C@H](Nc1ncnc2[nH]cnc12)c1nc2cccc(F)c2c(=O)n1-c1ccccc1

85
15

Attribution: ChEMBL document CHEMBL4689842
